All values here come from paper PMC9558907.

# subject-of-test: UniProt:P21554
# assay-text: competitive radioligand binding assay, displacement of [3H]CP55,940, HEK cell membranes
# Set-up: expressed in transfected cells; host or cells: HEK293 cells, P2 membrane preparation
# assay-context: hCB1 Ki, [3H]CP55,940 1 nM, value in brackets after pKi
pKi: −log10 of the molar value.
// reported pKi per item
attribute-measured: pKi

* COC(=O)[C@H](Cc1ccccc1)NC(=O)c1cn(CCCCF)c2ncccc12 | 6.06
* COC(=O)[C@@H](NC(=O)c1nn(CCCCC#N)c2ccccc12)C(C)C | 7.76
* COC(=O)[C@@H](NC(=O)c1nn(CCCCC#N)c2ccccc12)C(C)(C)C | 8.89
* CC(C)(C)[C@H](NC(=O)c1nn(CCCCC#N)c2ccccc12)C(N)=O | 8.09
* COC(=O)[C@@H](NC(=O)c1nn(CCCCF)c2ccccc12)C(C)(C)C | 8.21
* COC(=O)[C@H](Cc1ccccc1)NC(=O)c1cn(CCCCC#N)c2ccccc12 | 7.07
* CC(C)[C@H](NC(=O)c1cn(CCCCC#N)c2ccccc12)C(N)=O | 6.26
* COC(=O)[C@@H](NC(=O)c1cn(CCCCF)c2ncccc12)C(C)(C)C | 6.97

---

# subject-of-test: human CB1 (Homo sapiens, UniProt P21554)
# Sequence (P21554 whole entry): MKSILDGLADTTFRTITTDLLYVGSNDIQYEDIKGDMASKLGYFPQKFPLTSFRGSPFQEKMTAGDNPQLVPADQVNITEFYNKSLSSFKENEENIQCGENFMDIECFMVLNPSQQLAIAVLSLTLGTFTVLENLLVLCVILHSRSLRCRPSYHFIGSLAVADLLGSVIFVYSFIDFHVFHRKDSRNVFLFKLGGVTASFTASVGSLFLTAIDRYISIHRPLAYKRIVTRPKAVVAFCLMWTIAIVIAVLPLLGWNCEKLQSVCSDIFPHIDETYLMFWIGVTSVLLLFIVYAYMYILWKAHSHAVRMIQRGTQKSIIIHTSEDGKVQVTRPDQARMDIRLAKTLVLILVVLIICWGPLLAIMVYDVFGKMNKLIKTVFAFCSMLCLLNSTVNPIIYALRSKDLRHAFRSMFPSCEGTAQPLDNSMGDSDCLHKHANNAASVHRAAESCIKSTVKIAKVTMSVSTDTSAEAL
# assay-text: fluorescence-based membrane potential assay (GIRK activation) in AtT20 cells
# Assay type: cell-based
# Set-up: expressed in transfected cells; host or cells: mouse AtT20 FlpIn cells
# assay-context: AtT20-hCB1; normalised to 1 μM CP55,940
// reported hCB1 Emax ±SEM per item
attribute-measured: hCB1 Emax ±SEM

* COC(=O)[C@H](Cc1ccccc1)NC(=O)c1cn(CCCCC#N)c2ncccc12 | 110 ± 5 % CP55,940
* COC(=O)[C@H](Cc1ccccc1)NC(=O)c1cn(CCCCC#N)c2ccccc12 | 109 ± 3 % CP55,940
* CC(C)[C@H](NC(=O)c1cn(CCCCC#N)c2ccccc12)C(N)=O | 111 ± 5 % CP55,940
* COC(=O)[C@@H](NC(=O)c1nn(CCCCC#N)c2ccccc12)C(C)C | 117 ± 6 % CP55,940
* COC(=O)[C@H](Cc1ccccc1)NC(=O)c1nn(CCCCC#N)c2ccccc12 | 115 ± 3 % CP55,940
* COC(=O)[C@@H](NC(=O)c1nn(CCCCF)c2ccccc12)C(C)C | 103 ± 2 % CP55,940
* COC(=O)[C@@H](NC(=O)c1nn(CCCCC#N)c2ccccc12)C(C)(C)C | 113 ± 2 % CP55,940
* CC(C)(C)[C@H](NC(=O)c1cn(CCCCC#N)c2ccccc12)C(N)=O | 115 ± 5 % CP55,940
* CC(C)(C)[C@H](NC(=O)c1cn(CCCCF)c2ccccc12)C(N)=O | 110 ± 4 % CP55,940
* COC(=O)[C@@H](NC(=O)c1cn(CCCCF)c2ccccc12)C(C)(C)C | 114 ± 3 % CP55,940
* NC(=O)[C@H](Cc1ccccc1)NC(=O)c1nn(CCCCF)c2ccccc12 | 103 ± 3 % CP55,940
* CC(C)(C)[C@H](NC(=O)c1nn(CCCCC#N)c2ccccc12)C(N)=O | 109 ± 2 % CP55,940
* COC(=O)[C@@H](NC(=O)c1nn(CCCCF)c2ccccc12)C(C)(C)C | 106 ± 3 % CP55,940
* COC(=O)[C@H](Cc1ccccc1)NC(=O)c1nn(CCCCF)c2ccccc12 | 106 ± 3 % CP55,940
* COC(=O)[C@@H](NC(=O)c1cn(CCCCC#N)c2ncccc12)C(C)(C)C | 114 ± 5 % CP55,940
* CC(C)(C)[C@H](NC(=O)c1nn(CCCCF)c2ccccc12)C(N)=O | 116± 2 % CP55,940
* COC(=O)[C@H](Cc1ccccc1)NC(=O)c1cn(CCCCF)c2ccccc12 | 105 ± 2 % CP55,940
* COC(=O)[C@H](Cc1ccccc1)NC(=O)c1cn(CCCCF)c2ncccc12 | 122 ± 10 % CP55,940
* CC(C)[C@H](NC(=O)c1nn(CCCCF)c2ccccc12)C(N)=O | 107 ± 2 % CP55,940
* COC(=O)[C@@H](NC(=O)c1cn(CCCCF)c2ccccc12)C(C)C | 116 ± 3 % CP55,940
* COC(=O)[C@@H](NC(=O)c1cn(CCCCF)c2ncccc12)C(C)(C)C | 109 ± 3 % CP55,940
* COC(=O)[C@@H](NC(=O)c1cn(CCCCC#N)c2ccccc12)C(C)C | 105 ± 3 % CP55,940
* COC(=O)[C@@H](NC(=O)c1cn(CCCCF)c2ncccc12)C(C)C | 115 ± 16 % CP55,940
* CC(C)(C)[C@H](NC(=O)c1cn(CCCCC#N)c2ncccc12)C(N)=O | 102 ± 4 % CP55,940
* COC(=O)[C@@H](NC(=O)c1cn(CCCCC#N)c2ncccc12)C(C)C | 114 ± 7 % CP55,940
* CC(C)[C@H](NC(=O)c1cn(CCCCF)c2ccccc12)C(N)=O | 108 ± 3 % CP55,940
* COC(=O)[C@@H](NC(=O)c1cn(CCCCC#N)c2ccccc12)C(C)(C)C | 111 ± 3 % CP55,940
* CC(C)[C@H](NC(=O)c1nn(CCCCC#N)c2ccccc12)C(N)=O | 111 ± 5 % CP55,940
* CC(C)(C)[C@H](NC(=O)c1cn(CCCCF)c2ncccc12)C(N)=O | 112 ± 6 % CP55,940

---

# subject-of-test: human CB2 (Homo sapiens)
# Sequence (P34972 whole entry): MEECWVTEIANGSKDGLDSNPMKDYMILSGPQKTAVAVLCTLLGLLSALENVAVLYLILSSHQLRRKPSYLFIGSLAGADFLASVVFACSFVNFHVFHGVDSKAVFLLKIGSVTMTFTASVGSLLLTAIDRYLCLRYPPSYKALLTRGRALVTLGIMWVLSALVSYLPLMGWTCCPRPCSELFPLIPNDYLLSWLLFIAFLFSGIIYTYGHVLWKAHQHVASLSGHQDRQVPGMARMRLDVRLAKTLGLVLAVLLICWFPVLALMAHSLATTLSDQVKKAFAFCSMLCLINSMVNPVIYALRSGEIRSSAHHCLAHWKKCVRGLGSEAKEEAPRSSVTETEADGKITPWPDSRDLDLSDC
# assay-text: fluorescence-based membrane potential assay (GIRK activation) in AtT20 cells
# Type: cell-based
# Design: expressed in transfected cells; host or cells: mouse AtT20 FlpIn cells
# assay-context: hCB2 EC50, AtT20-hCB2; value in brackets after pEC50
pEC50: −log10 of the molar value.
attribute-measured: pEC50

* COC(=O)[C@@H](NC(=O)c1nn(CCCCF)c2ccccc12)C(C)C | 8.42
* N#CCCCCn1nc(C(=O)N[C@@H](Cc2ccccc2)C(N)=O)c2ccccc21 | 7.13
* CC(C)[C@H](NC(=O)c1cn(CCCCC#N)c2ccccc12)C(N)=O | 7.12
* CC(C)[C@H](NC(=O)c1cn(CCCCF)c2ccccc12)C(N)=O | 7.63
* COC(=O)[C@H](Cc1ccccc1)NC(=O)c1nn(CCCCC#N)c2ccccc12 | 8.49

---

# subject-of-test: human CB1 (Homo sapiens, UniProt P21554)
# assay-text: fluorescence-based membrane potential assay (GIRK activation) in AtT20 cells
# Type: cell-based
# Design: expressed in transfected cells; host or cells: mouse AtT20 FlpIn cells
# assay-context: AtT20-hCB1; DNC = did not converge; ND = < 50% change in fluorescence at 10 μM
attribute-measured: hCB1 pEC50 ±SEM

• N#CCCCCn1cc(C(=O)N[C@@H](Cc2ccccc2)C(N)=O)c2ccccc21 = DNC^b
• N#CCCCCn1nc(C(=O)N[C@@H](Cc2ccccc2)C(N)=O)c2ccccc21 = DNC^b
• CC(C)[C@H](NC(=O)c1cn(CCCCC#N)c2ncccc12)C(N)=O = DNC^b
• CC(C)[C@H](NC(=O)c1cn(CCCCF)c2ncccc12)C(N)=O = DNC^b
• NC(=O)[C@H](Cc1ccccc1)NC(=O)c1cn(CCCCF)c2ccccc12 = DNC^b

---

// reported pEC50 per item
# subject-of-test: human CB2 (Homo sapiens)
# assay-text: fluorescence-based membrane potential assay (GIRK activation) in AtT20 cells
# Format: cell-based
# Design: expressed in transfected cells; host or cells: mouse AtT20 FlpIn cells
# assay-context: hCB2 EC50, AtT20-hCB2; value in brackets after pEC50
pEC50: −log10 of the molar value.
attribute-measured: pEC50

• COC(=O)[C@@H](NC(=O)c1cn(CCCCC#N)c2ncccc12)C(C)(C)C = 7.90
• CC(C)(C)[C@H](NC(=O)c1cn(CCCCF)c2ccccc12)C(N)=O = 7.36
• CC(C)(C)[C@H](NC(=O)c1cn(CCCCF)c2ncccc12)C(N)=O = 8.30
• COC(=O)[C@@H](NC(=O)c1cn(CCCCF)c2ncccc12)C(C)C = 7.30

---

// reported melting point per item
attribute-measured: melting point

• CC(C)(C)[C@H](NC(=O)c1cn(CCCCC#N)c2ccccc12)C(N)=O = 101 to 103 °C
• CC(C)[C@H](NC(=O)c1nn(CCCCF)c2ccccc12)C(N)=O = 188 to 190 °C
• COC(=O)[C@@H](NC(=O)c1cn(CCCCF)c2ncccc12)C(C)(C)C = 56 to 58 °C
• COC(=O)[C@@H](NC(=O)c1cn(CCCCF)c2ccccc12)C(C)C = 111 to 114 °C
• COC(=O)[C@@H](NC(=O)c1cn(CCCCC#N)c2ccccc12)C(C)(C)C = 124 to 127 °C
• N#CCCCCn1cc(C(=O)N[C@@H](Cc2ccccc2)C(N)=O)c2cccnc21 = 182 to 184 °C
